- procedure text: Plasma concentrations in repeat-dosing study, satellite rats
- Assay type: in vivo, rat
- condition notes: male, Sprague Dawley, rat, plasma, po, 1.5 mg/kg/day, FTY720 1.5 mg/kg/d p.o., Terminal (last day), 4 hr post-dose, mean±SEM
experimental readout: concentration at 4 h (nM)
Reply with just the number (in nM).

Task: // fetch concentration at 4 h given entry CCCCCCCCc1ccc(CCC(N)(CO)CO)cc1 [FTY720]
Output: 60

* * *

- procedure text: Plasma concentrations during escalating i.v. infusion in anesthetized rats
- Format: in vivo
- condition notes: male, Sprague Dawley, plasma, iv; anesthetized rat, FTY720 i.v., end of 0.1 mg/kg/20 min infusion
experimental readout: concentration at 20 min (µM)
Reply with just the number (in µM).

Task: // fetch concentration at 20 min given entry CCCCCCCCc1ccc(CCC(N)(CO)CO)cc1 [FTY720]
Output: 0.054

* * *

- procedure text: Plasma concentrations in repeat-dosing study, satellite rats
- Format: in vivo, rat
- condition notes: male, Sprague Dawley, rat, plasma, po, 5 mg/kg/day, rat, FTY720 5.0 mg/kg/d p.o., Day 1, 4 hr post-dose, mean±SEM
experimental readout: concentration at 4 h
Mention the unit after the number when you answer.

Task: // fetch concentration at 4 h given entry CCCCCCCCc1ccc(CCC(N)(CO)CO)cc1
Output: 98 nM

* * *

- procedure text: Plasma concentrations in repeat-dosing study, satellite rats
- Type: in vivo, rat
- condition notes: male, Sprague Dawley, rat, plasma, po, 0.5 mg/kg/day, FTY720 0.5 mg/kg/d p.o., Terminal (last day), 8 hr post-dose, mean±SEM
experimental readout: concentration at 8 h (nM)
Reply with just the number (in nM).

Task: // fetch concentration at 8 h given entry CCCCCCCCc1ccc(CCC(N)(CO)CO)cc1
Output: 63

* * *

- procedure text: Plasma concentrations after a single oral dose in rats
- Assay type: in vivo
- condition notes: male, Sprague Dawley, plasma; rat, FTY720 1.0 mg/kg single oral dose, 72 hr post-dose, mean±SEM
- Protocol: Mean arterial pressure was assessed in conscious, freely moving male Sprague Dawley rats (n = 6–8/group; Charles River) instrumented with telemetry transmitters (DSI-Ponemah) and housed in metabolism cages as previously described, [26]. […] The statistical analysis in the chronic studies were based on one-way ANOVA with repeated measures to compare the treatment arms; statistical significance (p<0.05) was detected by Dunnett’s post-hoc test to compare treatment with vehicle controls.
experimental readout: concentration at 72 h (nM)
Reply with just the number (in nM).

Task: // fetch concentration at 72 h given entry CCCCCCCCc1ccc(CCC(N)(CO)CO)cc1 [FTY720]
Output: 10

* * *

- procedure text: Plasma concentrations in repeat-dosing study, satellite rats
- Assay type: in vivo, rat
- condition notes: male, Sprague Dawley, rat, plasma, po, 0.5 mg/kg/day, rat, FTY720 0.5 mg/kg/d p.o., Day 1, 4 hr post-dose, mean±SEM
experimental readout: concentration at 4 h (nM)
Reply with just the number (in nM).

Task: // fetch concentration at 4 h given entry CCCCCCCCc1ccc(CCC(N)(CO)CO)cc1
Output: 9

* * *

- procedure text: Plasma concentrations in repeat-dosing study, satellite rats
- Assay type: in vivo, rat
- condition notes: male, Sprague Dawley, rat, plasma, po, 3 mg/kg/day, rat, BAF312 3.0 mg/kg/d p.o., Day 1, 8 hr post-dose, mean±SEM
experimental readout: concentration at 8 h

Task: // fetch concentration at 8 h given entry CCc1cc(/C(C)=N/OCc2ccc(C3CCCCC3)c(C(F)(F)F)c2)ccc1CN1CC(C(=O)O)C1 [BAF312]
Output: 584 nM
